# reported IC50; entries follow
- Tested on: MYB mRNA
- Assay method text: Gene panel canonical junction qPCR assay, decrease in CJ mRNA, Table 3
- Format: cell-based
- Particulars: decrease in CJ mRNA levels, canonical junction qPCR, gene panel

{"columns": ["Chemical smiles", "Tested system", "IC50"],
 "data": [
  ["COc1nc2c(C(=O)Nc3cc(F)c4nc(CO)cn4c3)ccc(N3C[C@H](C)N[C@@H](C)C3)c2s1", "MYB mRNA", "< 100 nM"],
  ["COc1nc2c(C(=O)Nc3cc4cn(C)nc4c(C)c3O)ccc(N3C[C@H](C)N[C@@H](C)C3)c2s1", "MYB mRNA", "1000 to 10000 nM"],
  ["COc1cc2nn(C)cc2cc1NC(=O)c1ccc(N2CCC(NC3CC3)CC2)c2cc(C)nn12", "MYB mRNA", "100 to 1000 nM"],
  ["CCNC1CCN(c2ccc(C(=O)Nc3cn4ccnc(CNS(C)(=O)=O)c4n3)c3nn(C)cc23)CC1", "MYB mRNA", "> 10000 nM"],
  ["Cc1cn2cc(NC(=O)c3ccc(N4CCC(NC5CC5)CC4)c4cn(C)nc34)nc2c(CCS(=O)(=O)N(C)C)n1", "MYB mRNA", "1000 to 10000 nM"],
  ["CCNC1(C)CCN(c2ccc(C(=O)Nc3cn4cc(C)nc(CNS(C)(=O)=O)c4n3)c3nn(C)cc23)CC1", "MYB mRNA", "1000 to 10000 nM"],
  ["COc1nc2c(C(=O)Nc3ccc4nn(C)cc4c3OC)ccc(N3C[C@H](C)N[C@@H](C)C3)c2s1", "MYB mRNA", "> 10000 nM"]
]}

---

# reported pIC50; entries follow
- System: MYB mRNA
- Assay method text: Gene panel canonical junction qPCR assay, decrease in CJ mRNA, Table 3
- Format: cell-based
- Particulars: decrease in canonical junction (CJ) mRNA, gene panel qPCR, Table 3
pIC50: −log10 of the molar value. Structures can show the parent of a compound that is named as a salt.

{"columns": ["Compound", "pIC50"],
 "data": [
  ["Cc1cn2cc(NC(=O)c3c(F)cc(N4CCC(NC5CC5)CC4)c4cn(C)nc34)c(Oc3ccccc3)cc2n1", "> 7.00"],
  ["COc1cc2nn(C)cc2cc1NC(=O)c1cnc(N2CCC(NC3CC3)CC2)c2cn(C)nc12", "> 7.00"],
  ["Cc1cn2cc(NC(=O)c3ccc(N4CCC(NC5CC5)CC4)c4cc(C)nn34)cc(F)c2n1", "> 7.00"],
  ["CCNC1CCN(c2ccc(C(=O)Nc3cc(Oc4ccccc4Cl)c4nc(C)cn4c3)c3nn(C)cc23)CC1", "< 5.00"],
  ["COc1cc2nn(C)cc2cc1C(=O)Nc1ccc(N2CCNCC2)c2cn(C)nc12", "< 5.00"],
  ["Cc1cn2cc(NC(=O)c3ccc(N4CCC(N[C@@H]5C[C@H]5O)CC4)c4cn(C)nc34)cc(F)c2n1 [Compound 370, hydrochloride]", "6.00 to 7.00"],
  ["CCNC1CCN(c2cc(F)c(C(=O)Nc3cn4cc(C)nc(CC)c4n3)c3nn(C)cc23)CC1", "6.00 to 7.00"],
  ["Cc1cn2cc(NC(=O)c3c(F)cc(N4CCNCC4)c4occc34)cc(F)c2n1", "< 5.00"],
  ["COc1cc2n[nH]cc2cc1NC(=O)c1c(F)cc(N2CCC(NC3CC3)CC2)c2cn(C)nc12", "< 5.00"],
  ["CCNC1CCN(c2ccc(C(=O)Nc3cc(F)c4nc(C)oc4c3)c3nn(C)cc23)CC1", "6.00 to 7.00"],
  ["Cc1cn2cc(NC(=O)c3ccc(N4CCNCC4)c4cc[nH]c34)cc(F)c2n1", "< 5.00"]
]}
